// reported viability at 30 µM per item
assay: Cytotoxicity against mouse Melan-a cells assessed as cell viability at 30 uM; type: cell-based; details: Melan-a cells, read-out: Activity
OUTCOME MEASURE: viability at 30 µM (%)

[[record]]
compound_smiles = "CCc1ccc(C(=O)Nc2cccc(C)c2)cc1"
data_value = -2.2

[[record]]
compound_smiles = "CCc1ccc(C(=O)Nc2cc(OC)cc(OC)c2)cc1"
data_value = 10.1

[[record]]
compound_smiles = "Cc1cccc(NC(=O)c2cccc(C)c2)c1"
data_value = -0.1

[[record]]
compound_smiles = "COC(=O)c1ccc(NC(=O)c2ccc(OC)cc2)cc1"
data_value = -5.6

[[record]]
compound_smiles = "Cc1ccc(NC(=O)c2ccccc2C)cc1"
data_value = -0.2

[[record]]
compound_smiles = "COC(=O)c1cccc(NC(=O)c2ccc(C)cc2)c1"
data_value = 16.4

[[record]]
compound_smiles = "COc1ccc(C(=O)Nc2cccc(OC)c2)cc1"
data_value = 0.6

[[record]]
compound_smiles = "Cc1cc(C)cc(NC(=O)c2cccc(C)c2)c1"
data_value = 6

[[record]]
compound_smiles = "COc1ccc(NC(=O)c2ccco2)c(OC)c1"
data_value = -24.1

[[record]]
compound_smiles = "CCc1ccc(C(=O)Nc2ccc(C(=O)OC)cc2)cc1"
data_value = 2

[[record]]
compound_smiles = "CCCCOc1ccc(NC(=O)c2cccc(C)c2)cc1"
data_value = 4.8

[[record]]
compound_smiles = "CCc1ccc(C(=O)Nc2ccc(C(C)=O)cc2)cc1"
data_value = 3.4

[[record]]
compound_smiles = "COC(=O)c1ccccc1NC(=O)c1ccco1"
data_value = -2.3

[[record]]
compound_smiles = "COc1cccc(C(=O)Nc2cc(C)cc(C)c2)c1"
data_value = 32

[[record]]
compound_smiles = "COc1ccc(C(=O)Nc2cc(OC)cc(OC)c2)cc1"
data_value = 13.6

[[record]]
compound_smiles = "COC(=O)c1ccccc1NC(=O)c1ccc(OC)cc1"
data_value = 31.1

[[record]]
compound_smiles = "CCCCOc1ccc(NC(=O)c2ccco2)cc1"
data_value = 3.7

[[record]]
compound_smiles = "Cc1cccc(NC(=O)c2ccc(C#N)cc2)c1"
data_value = 11.1

[[record]]
compound_smiles = "COC(=O)c1ccc(NC(=O)c2ccc(C#N)cc2)cc1"
data_value = 14.2

[[record]]
compound_smiles = "COc1cccc(C(=O)Nc2cccc(C)c2)c1"
data_value = 12

[[record]]
compound_smiles = "COc1ccc(C(=O)Nc2ccccc2OC)cc1"
data_value = -2.6

